Readings of pNF for the listed molecules
Would you mind answering with just the numeric figure?

Worked cases, pNF given:
MOLECULE	pNF
CC[C@H]1OC(=O)CC(O)[C@H](C)[C@@H](O[C@@H]2O[C@H](C)C[C@H](N(C)C)[C@H]2O)[C@@H](CCN(C)CCN(C)C(=O)[C@H](C)N)C[C@@H](C)C(=O)/C=C/C(C)=C/[C@@H]1C (some centres not stated)	2.391
CC[C@H]1OC(=O)C[C@@H](O)[C@H](C)[C@@H](O[C@@H]2O[C@H](C)[C@@H](O)[C@@H](N(C)C)[C@H]2O)[C@@H](CC=O)C[C@@H](C)C(=O)/C=C/C(C)=C/[C@@H]1CO[C@@H]1O[C@H](C)[C@@H](O)[C@@H](OC)[C@H]1OC	1.005
CO[C@@H]1[C@@H](O[C@@H]2O[C@H](C)[C@@H](O[C@H]3C[C@@](C)(O)[C@@H](OC(=O)CC(C)C)[C@H](C)O3)[C@H](N(C)C)[C@H]2O)[C@@H](CC=O)C[C@@H](C)C(=O)/C=C/[C@@H]2O[C@H]2C[C@@H](C)OC(=O)C[C@H]1OC(C)=O [CARBOMYCIN A]	0.419
CC[C@H]1OC(=O)CC(O)[C@H](C)[C@@H](O[C@@H]2O[C@H](C)C[C@H](N(C)C)[C@H]2O)[C@@H](CCN(CCCN(C)C)C(=O)[C@H](C)N)C[C@@H](C)C(=O)/C=C/C(C)=C/[C@@H]1C (some centres not stated)	4.138
CC[C@H]1OC(=O)CC(O)[C@H](C)[C@@H](O[C@@H]2O[C@H](C)C[C@H](N(C)C)[C@H]2O)[C@@H](CCNC2C(O)CCCC2O)C[C@@H](C)C(=O)/C=C/C(C)=C/[C@@H]1C (some centres not stated)	3.099
CC[C@H]1OC(=O)CC(O)[C@H](C)[C@@H](O[C@@H]2O[C@H](C)C[C@H](N(C)C)[C@H]2O)[C@@H](CCN(C)CCN(C)C)C[C@@H](C)C(=O)/C=C/C(C)=C/[C@@H]1C (some centres not stated)	2.413

Item CCC1OC(=O)CC(O)C(C)C(O[C@@H]2O[C@H](C)C[C@H](N(C)C)[C@H]2O)C(CC=O)CC(C)C(=O)/C=C/C(C)=C/C1C (some centres not stated) has what recorded pNF?
1.446

* * *

# pCF annotations
Please reply with the value in numeric form only.

Below, 5 molecules whose answers are already recorded.
MOLECULE	pCF
CC[C@H]1OC(=O)CC(O)[C@H](C)[C@@H](O[C@@H]2O[C@H](C)C[C@H](N(C)C)[C@H]2O)[C@@H](CCN(C)CCCN(C)C(=O)[C@H](C)N)C[C@@H](C)C(=O)/C=C/C(C)=C/[C@@H]1C (some centres not stated)	1.307
CC[C@H]1OC(=O)CC(O)[C@H](C)[C@@H](O[C@@H]2O[C@H](C)C[C@H](N(C)C)[C@H]2O)[C@@H](CCNCCCN(C)C)C[C@@H](C)C(=O)/C=C/C(C)=C/[C@@H]1C (some centres not stated)	2.157
CC[C@H]1OC(=O)CC(O)[C@H](C)[C@@H](O[C@@H]2O[C@H](C)C[C@H](N(C)C)[C@H]2O)[C@@H](CCN(C)CCN(C)C(=O)[C@H](C)N)C[C@@H](C)C(=O)/C=C/C(C)=C/[C@@H]1C (some centres not stated)	0.891
CC[C@H]1OC(=O)[C@H](C)[C@@H](O[C@H]2C[C@@](C)(OC)[C@@H](O)[C@H](C)O2)[C@H](C)[C@@H](O[C@@H]2O[C@H](C)C[C@H](N(C)C)[C@H]2O)[C@](C)(O)C[C@@H](C)C(=O)[C@H](C)[C@@H](O)[C@]1(C)O	0.014
CCC1OC(=O)CC(O)C(C)C(O[C@@H]2O[C@H](C)C[C@H](N(C)C)[C@H]2O)C(CC=O)CC(C)C(=O)/C=C/C(C)=C/C1C (some centres not stated)	0.016

GET /values?readout=pCF&item= CO[C@H]1C[C@H](O[C@H]2[C@H](C)[C@@H](O[C@@H]3O[C@H](C)C[C@H](N(C)C)[C@H]3O)[C@@H](C)CC3(CO3)C(=O)[C@H](C)[C@@H](O)[C@@H](C)[C@@H](C)OC(=O)[C@@H]2C)O[C@@H](C)[C@@H]1O (single isomer, unassigned)
0.015

Repeat with CC[C@H]1OC(=O)C[C@@H](O)[C@H](C)[C@@H](O[C@@H]2O[C@H](C)[C@@H](O)[C@@H](N(C)C)[C@H]2O)[C@@H](CC=O)C[C@@H](C)C(=O)/C=C/C(C)=C/[C@@H]1CO[C@@H]1O[C@H](C)[C@@H](O)[C@@H](OC)[C@H]1OC
0.045

* * *

The reader will find reported Log K values listed item by item below.
Please state the value as a number alone, without comment.

COMPOUND	MEAS_VALUE
CC[C@H]1OC(=O)CC(O)[C@H](C)[C@@H](O[C@@H]2O[C@H](C)C[C@H](N(C)C)[C@H]2O)[C@@H](CCNCCO)C[C@@H](C)C(=O)/C=C/C(C)=C/[C@@H]1C (stereo not given in full)	0.1
CC[C@H]1OC(=O)CC(O)[C@H](C)[C@@H](O[C@@H]2O[C@H](C)C[C@H](N(C)C)[C@H]2O)[C@@H](CCNCCCN(C)C)C[C@@H](C)C(=O)/C=C/C(C)=C/[C@@H]1C (stereo not given in full)	0.19
CC[C@H]1OC(=O)CC(O)[C@H](C)[C@@H](O[C@@H]2O[C@H](C)C[C@H](N(C)C)[C@H]2O)[C@@H](CCNC2C(O)CCCC2O)C[C@@H](C)C(=O)/C=C/C(C)=C/[C@@H]1C (stereo not given in full)	0.23
CC[C@H]1OC(=O)CC(O)[C@H](C)[C@@H](O[C@@H]2O[C@H](C)C[C@H](N(C)C)[C@H]2O)[C@@H](CCN(C)CCN(C)C(=O)[C@H](C)N)C[C@@H](C)C(=O)/C=C/C(C)=C/[C@@H]1C (stereo not given in full)	0.02

// lookup Log K for CC[C@H]1OC(=O)C[C@@H](O)[C@H](C)[C@@H](O[C@@H]2O[C@H](C)C[C@H](N(C)C)[C@H]2O)[C@@H](CC=O)C[C@@H](C)C(=O)/C=C/[C@]2(C)O[C@H]2[C@@H]1C
0.63

* * *

Assay: physchem
Description: Dissociation constant (pKa)
VALUE_KIND: pKa
Output spec: single numeric token, no unit.

MOLECULE	pKa
CC[C@H]1OC(=O)CC(O)[C@H](C)[C@@H](O[C@@H]2O[C@H](C)C[C@H](N(C)C)[C@H]2O)[C@@H](CCN(C)CCN(C)C(=O)[C@H](C)N)C[C@@H](C)C(=O)/C=C/C(C)=C/[C@@H]1C (some centres not stated)	6.81

Query molecule follows.
# pKa lookup, item CC[C@H]1OC(=O)[C@H](C)[C@@H](O[C@H]2C[C@@](C)(OC)[C@@H](O)[C@H](C)O2)[C@H](C)[C@@H](O[C@@H]2O[C@H](C)C[C@H](N(C)C)[C@H]2O)[C@](C)(O)C[C@@H](C)C(=O)[C@H](C)[C@@H](O)[C@]1(C)O
8.88

* * *

Assay: physchem
Below, each of the compounds is paired with its reported pKa value.

Below, 3 compounds whose answers are already recorded.
COMPOUND	pKa
CC[C@H]1OC(=O)CC(O)[C@H](C)[C@@H](O[C@@H]2O[C@H](C)C[C@H](N(C)C)[C@H]2O)[C@@H](CCNC2C(O)CCCC2O)C[C@@H](C)C(=O)/C=C/C(C)=C/[C@@H]1C (some centres undefined)	8.56
CC[C@H]1OC(=O)C[C@@H](O)[C@H](C)[C@@H](O[C@@H]2O[C@H](C)[C@@H](O[C@H]3C[C@@](C)(O)[C@@H](O)[C@H](C)O3)[C@H](N(C)C)[C@H]2O)[C@@H](CC=O)C[C@@H](C)C(=O)/C=C/C(C)=C/[C@@H]1CO[C@@H]1O[C@H](C)[C@@H](O)[C@@H](OC)[C@H]1OC	7.73
CO[C@H]1C[C@H](O[C@H]2[C@H](C)[C@@H](O[C@@H]3O[C@H](C)C[C@H](N(C)C)[C@H]3O)[C@@H](C)CC3(CO3)C(=O)[C@H](C)[C@@H](O)[C@@H](C)[C@@H](C)OC(=O)[C@@H]2C)O[C@@H](C)[C@@H]1O (single isomer, unassigned)	8.84

# get_value(readout='pKa', item= CC[C@H]1OC(=O)CC(O)[C@H](C)[C@@H](O[C@@H]2O[C@H](C)C[C@H](N(C)C)[C@H]2O)[C@@H](CCN(CCCN(C)C)C(=O)[C@H](C)N)C[C@@H](C)C(=O)/C=C/C(C)=C/[C@@H]1C (some centres undefined) )
7.81
